Just for reference, patent US12391768B2 is where these values come from.

# maps each entry to its IC50
Target: TICA0053 Fab
Assay: HTRF competition binding selectivity assay, TICA0053 His-Fab
Set-up: species or system human
Conditions: first series (Table 2), not DMSO normalised; read-out: IC50 (uM) for inhibition of biotinylated ticagrelor binding to TICA0053 his-Fab
Write it as a number; the unit µM goes unstated.

Below are worked cases with known answers.
[[record]]
molecule = "CSCCNc1nc(SCCC(F)(F)F)nc2c1ncn2[C@@H]1O[C@H](COP(=O)(O)OP(=O)(O)C(Cl)(Cl)P(=O)(O)O)[C@@H](O)[C@H]1O [Cangrelor]"
obs_value = 17.5

[[record]]
molecule = "CCCSc1nc(N[C@@H]2C[C@H]2c2ccc(F)c(F)c2)c2nnn([C@@H]3C[C@H](OCCO)[C@@H](O)[C@H]3O)c2n1 [Ticagrelor]"
obs_value = 0.109


Here's the next entry for you.
Read the entry CCCSc1nc(N[C@@H]2C[C@H]2c2ccc(F)c(F)c2)c2nnn([C@@H]3C[C@H](O)[C@@H](O)[C@H]3O)c2n1 [TAM] and write its reported IC50.
0.134
